The measurements presented in this section are drawn from ChEMBL document CHEMBL3627645.

# testTarget: Serine/threonine-protein kinase pim-3 (Homo sapiens, UniProt Q86V86)
# experimentNotes: Inhibition of human Pim-3 using RSRHSSYPAGT as substrate measured for 30 mins in presence of [gamma-33P]-ATP
metricName: IC50 (µM)

{"compound": "O=Cc1cn2c3c1ccc1c4ccccc4n(c13)CC(OCCO)C2 (stereo not given)", "unitOfMeasurement": "µM", "IC50": 0.7}
{"compound": "O=Cc1cn2c3c1ccc1c4ccccc4n(c13)CC(O)C2 (stereo not given)", "unitOfMeasurement": "µM", "IC50": 0.38}
{"compound": "N#CCOC1Cn2cc(C=O)c3ccc4c5ccccc5n(c4c32)C1 (stereo not given)", "unitOfMeasurement": "µM", "IC50": 0.19}

a: CS(=O)(=O)OC1Cn2cc(C=O)c3ccc4c5ccccc5n(c4c32)C1 (stereo not given)
b: O=Cc1cn2c3c1ccc1c4ccccc4n(c13)CC(OCCCBr)C2 (stereo not given)
Qu. Problem: Given the entries a and b , determine which has the lower reported IC50. Identify your pick by its label.
Ans. b
(b: 0.34 µM, a: 0.6 µM)

====

# testTarget: Serine/threonine-protein kinase pim-1 (Homo sapiens)
# experimentNotes: Inhibition of human Pim-1 using RSRHSSYPAGT as substrate assessed as residual activity at 10 uM measured for 30 mins in presence of [gamma-33P]-ATP relative to control
# Sequence (P11309 whole entry, looked up): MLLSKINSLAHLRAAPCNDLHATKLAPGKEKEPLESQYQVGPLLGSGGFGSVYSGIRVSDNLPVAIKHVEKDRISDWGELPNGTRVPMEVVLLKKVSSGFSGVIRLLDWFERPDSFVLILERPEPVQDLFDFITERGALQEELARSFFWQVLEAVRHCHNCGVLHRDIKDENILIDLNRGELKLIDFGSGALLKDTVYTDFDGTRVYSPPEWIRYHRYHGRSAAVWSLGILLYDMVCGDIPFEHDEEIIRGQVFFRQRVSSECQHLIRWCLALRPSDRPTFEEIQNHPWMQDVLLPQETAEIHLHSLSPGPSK
metricName: Activity (%)

These solved cases illustrate the format of a correct answer.
{"compound": "O=Cc1cn2c3c1ccc1c4ccccc4n(c13)CC(OCCCO)C2 (centres undefined)", "testTarget": "Serine/threonine-protein kinase pim-1 (Homo sapiens)", "metricName": "Activity", "reading": 21}
{"compound": "Cc1ccc(S(=O)(=O)OCCOC2Cn3cc(C=O)c4ccc5c6ccccc6n(c5c43)C2)cc1 (centres undefined)", "testTarget": "Serine/threonine-protein kinase pim-1 (Homo sapiens)", "metricName": "Activity", "reading": 102}
{"compound": "O=Cc1cn2c3c1ccc1c4ccccc4n(c13)CC(OCCCN1CCCCC1)C2 (centres undefined)", "testTarget": "Serine/threonine-protein kinase pim-1 (Homo sapiens)", "metricName": "Activity", "reading": 31}

A: Cc1ccc(S(=O)(=O)NC2Cn3cc(C=O)c4ccc5c6ccccc6n(c5c43)C2)cc1 (centres undefined)
B: CN1CCN(CCCOC2Cn3cc(C=O)c4ccc5c6ccccc6n(c5c43)C2)CC1 (centres undefined)
Qu. Among A and B , which shows a numerically higher Activity result? Identify your pick by its label.
Ans. A
(A: 32%, B: 22.4%)

====

# testTarget: Serine/threonine-protein kinase pim-1 (Homo sapiens, UniProt P11309)
# experimentNotes: Inhibition of human Pim-1 using RSRHSSYPAGT as substrate assessed as residual activity at 1 uM measured for 30 mins in presence of [gamma-33P]-ATP relative to control
metricName: Activity (%)

{"compound": "CCN(CC)CCOC1Cn2cc(C=O)c3ccc4c5ccccc5n(c4c32)C1 (stereo not given)", "testTarget": "Serine/threonine-protein kinase pim-1 (Homo sapiens, UniProt P11309)", "unitOfMeasurement": "%", "Activity": 78}

P: O=Cc1cn2c3c1ccc1c4ccccc4n(c13)CC(OCCN1CCCCC1)C2 (stereo not given)
Q: CS(=O)(=O)OC1Cn2cc(C=O)c3ccc4c5ccccc5n(c4c32)C1 (stereo not given)
Qu. Among P and Q , which shows a numerically higher Activity result? Identify your pick by its label.
Ans. P
(P: 82%, Q: 24%)

====

# Test system: IPC81
# experimentNotes: Induction of apoptosis in rat IPC81 cells assessed as chromatin condensation and fragmentation at 10 to 100 uM after 48 to 72 hrs by Hoechst 33342 staining-based visual and UV microscopic analysis
# Format: functional, cell-based
The source made the active and inactive calls. The calls are words filed in the database; no cut-off is given here.
API: response.call in active, inactive

Would you please look over these solved cases?
{"compound": "N#CCOC1Cn2cc(C=O)c3ccc4c5ccccc5n(c4c32)C1 (centres undefined)", "categoryLabel": "inactive"}
{"compound": "O=Cc1cn2c3c1ccc1c4ccccc4n(c13)CC(OCCCBr)C2 (centres undefined)", "categoryLabel": "inactive"}

Qu. Record request — test call for O=Cc1cn2c3c1ccc1c4ccccc4n(c13)CC(OCCCN1CCCCC1)C2 (centres undefined)
Ans. active

Qu. Record request — test call for O=Cc1cn2c3c1ccc1c4ccccc4n(c13)CC(OCCO)C2 (centres undefined)
Ans. active

====

# testTarget: Serine/threonine-protein kinase pim-1 (Homo sapiens, UniProt P11309)
# experimentNotes: Inhibition of human Pim-1 using RSRHSSYPAGT as substrate assessed as residual activity at 10 uM measured for 30 mins in presence of [gamma-33P]-ATP relative to control
metricName: Activity (%)

{"compound": "O=Cc1cn2c3c1ccc1c4ccccc4n(c13)CC(OCCCBr)C2 (stereo not given)", "Activity / %": 19}
{"compound": "CCN(CC)CCOC1Cn2cc(C=O)c3ccc4c5ccccc5n(c4c32)C1 (stereo not given)", "Activity / %": 35}
{"compound": "N#CCOC1Cn2cc(C=O)c3ccc4c5ccccc5n(c4c32)C1 (stereo not given)", "Activity / %": 1.9}

1: O=Cc1cn2c3c1ccc1c4ccccc4n(c13)CC(O)C2 (stereo not given)
2: Cc1ccc(S(=O)(=O)OCCCOC2Cn3cc(C=O)c4ccc5c6ccccc6n(c5c43)C2)cc1 (stereo not given)
Qu. Among 1 and 2 , which shows a numerically higher Activity result? Identify your pick by its label.
Ans. 2

====

# testTarget: Serine/threonine-protein kinase pim-1 (Homo sapiens, UniProt P11309)
# experimentNotes: Inhibition of human Pim-1 using RSRHSSYPAGT as substrate assessed as residual activity at 1 uM measured for 30 mins in presence of [gamma-33P]-ATP relative to control
metricName: Activity (%)

These solved cases illustrate the format of a correct answer.
{"compound": "Cc1ccc(S(=O)(=O)OCCCOC2Cn3cc(C=O)c4ccc5c6ccccc6n(c5c43)C2)cc1 (centres undefined)", "Activity (%)": 81}
{"compound": "Cc1ccc(S(=O)(=O)OCCOC2Cn3cc(C=O)c4ccc5c6ccccc6n(c5c43)C2)cc1 (centres undefined)", "Activity (%)": 78}
{"compound": "CN1CCN(CCCOC2Cn3cc(C=O)c4ccc5c6ccccc6n(c5c43)C2)CC1 (centres undefined)", "Activity (%)": 58.2}
{"compound": "O=Cc1cn2c3c1ccc1c4ccccc4n(c13)CC(OCCO)C2 (centres undefined)", "Activity (%)": 44}
{"compound": "Cc1ccc(S(=O)(=O)NC2Cn3cc(C=O)c4ccc5c6ccccc6n(c5c43)C2)cc1 (centres undefined)", "Activity (%)": 52}
{"compound": "O=Cc1cn2c3c1ccc1c4ccccc4n(c13)CC(OCCN1CCOCC1)C2 (centres undefined)", "Activity (%)": 57}
{"compound": "O=Cc1cn2c3c1ccc1c4ccccc4n(c13)CC(OCCCN1CCCC1)C2 (centres undefined)", "Activity (%)": 58}

A: O=Cc1cn2c3c1ccc1c4ccccc4n(c13)CC(OCCCN1CCOCC1)C2 (centres undefined)
B: O=Cc1cn2c3c1ccc1c4ccccc4n(c13)CC(O)C2 (centres undefined)
Qu. Among A and B , which shows a numerically higher Activity result? Identify your pick by its label.
Ans. A
(A: 75%, B: 38%)

====

# testTarget: Serine/threonine-protein kinase pim-3 (Homo sapiens, UniProt Q86V86)
# experimentNotes: Inhibition of human Pim-3 using RSRHSSYPAGT as substrate assessed as residual activity at 10 uM measured for 30 mins in presence of [gamma-33P]-ATP relative to control
metricName: Activity (%)

{"compound": "CN1CCN(CCOC2Cn3cc(C=O)c4ccc5c6ccccc6n(c5c43)C2)CC1 (centres undefined)", "Activity (%)": 28}

1: CCN(CC)CCCOC1Cn2cc(C=O)c3ccc4c5ccccc5n(c4c32)C1 (centres undefined)
2: O=Cc1cn2c3c1ccc1c4ccccc4n(c13)CC(OCCO)C2 (centres undefined)
3: O=Cc1cn2c3c1ccc1c4ccccc4n(c13)CC(O)C2 (centres undefined)
Qu. Rank by Activity (largest to smallest). Return the labels ranked in the requested order, please.
Ans. 1, 2, 3

====

# testTarget: Serine/threonine-protein kinase pim-1 (Homo sapiens, UniProt P11309)
# experimentNotes: Inhibition of Pim-1 (unknown origin)
# Sequence (P11309 whole entry): as the sequence (P11309 whole entry, looked up) above
metricName: IC50 (nM)

A: O=Cc1cn2c3c1ccc1c4ccccc4n(c13)CCCCC2
B: O=Cc1cn2c3c1ccc1c4ccccc4n(c13)CCC2
Qu. Problem: Given the entries A and B , determine which has the lower reported IC50. Identify your pick by its label.
Ans. A

====

# testTarget: Serine/threonine-protein kinase pim-3 (Homo sapiens, UniProt Q86V86)
# experimentNotes: Inhibition of human Pim-3 using RSRHSSYPAGT as substrate assessed as residual activity at 1 uM measured for 30 mins in presence of [gamma-33P]-ATP relative to control
metricName: Activity (%)

These solved cases illustrate the format of a correct answer.
{"compound": "O=Cc1cn2c3c1ccc1c4ccccc4n(c13)CC(OCCCBr)C2 (centres undefined)", "testTarget": "Serine/threonine-protein kinase pim-3 (Homo sapiens, UniProt Q86V86)", "metricName": "Activity", "reading": 40}
{"compound": "O=Cc1cn2c3c1ccc1c4ccccc4n(c13)CC(OCCN1CCOCC1)C2 (centres undefined)", "testTarget": "Serine/threonine-protein kinase pim-3 (Homo sapiens, UniProt Q86V86)", "metricName": "Activity", "reading": 65.8}
{"compound": "Cc1ccc(S(=O)(=O)NC2Cn3cc(C=O)c4ccc5c6ccccc6n(c5c43)C2)cc1 (centres undefined)", "testTarget": "Serine/threonine-protein kinase pim-3 (Homo sapiens, UniProt Q86V86)", "metricName": "Activity", "reading": 55}
{"compound": "O=Cc1cn2c3c1ccc1c4ccccc4n(c13)CC(O)C2 (centres undefined)", "testTarget": "Serine/threonine-protein kinase pim-3 (Homo sapiens, UniProt Q86V86)", "metricName": "Activity", "reading": 13.3}

A: CCN(CC)CCOC1Cn2cc(C=O)c3ccc4c5ccccc5n(c4c32)C1 (centres undefined)
B: O=Cc1cn2c3c1ccc1c4ccccc4n(c13)CC(OCCO)C2 (centres undefined)
C: N#CCOC1Cn2cc(C=O)c3ccc4c5ccccc5n(c4c32)C1 (centres undefined)
Qu. # ascending order, key=Activity Return the labels ranked in the requested order, please.
Ans. C, B, A

P: O=Cc1cn2c3c1ccc1c4ccccc4n(c13)CC(OCCN1CCCCC1)C2 (centres undefined)
Q: CS(=O)(=O)OC1Cn2cc(C=O)c3ccc4c5ccccc5n(c4c32)C1 (centres undefined)
Qu. Among P and Q , which shows a numerically higher Activity result? Identify your pick by its label.
Ans. P

I: O=Cc1cn2c3c1ccc1c4ccccc4n(c13)CC(OCCN1CCCC1)C2 (centres undefined)
II: Cc1ccc(S(=O)(=O)OCCCOC2Cn3cc(C=O)c4ccc5c6ccccc6n(c5c43)C2)cc1 (centres undefined)
Qu. Among I and II , which shows a numerically higher Activity result? Identify your pick by its label.
Ans. II
(II: 70.8%, I: 48%)
